# SYSTEM_UNDER_TEST: hKv1.3 (Homo sapiens)
# Sequence (P22001 whole entry): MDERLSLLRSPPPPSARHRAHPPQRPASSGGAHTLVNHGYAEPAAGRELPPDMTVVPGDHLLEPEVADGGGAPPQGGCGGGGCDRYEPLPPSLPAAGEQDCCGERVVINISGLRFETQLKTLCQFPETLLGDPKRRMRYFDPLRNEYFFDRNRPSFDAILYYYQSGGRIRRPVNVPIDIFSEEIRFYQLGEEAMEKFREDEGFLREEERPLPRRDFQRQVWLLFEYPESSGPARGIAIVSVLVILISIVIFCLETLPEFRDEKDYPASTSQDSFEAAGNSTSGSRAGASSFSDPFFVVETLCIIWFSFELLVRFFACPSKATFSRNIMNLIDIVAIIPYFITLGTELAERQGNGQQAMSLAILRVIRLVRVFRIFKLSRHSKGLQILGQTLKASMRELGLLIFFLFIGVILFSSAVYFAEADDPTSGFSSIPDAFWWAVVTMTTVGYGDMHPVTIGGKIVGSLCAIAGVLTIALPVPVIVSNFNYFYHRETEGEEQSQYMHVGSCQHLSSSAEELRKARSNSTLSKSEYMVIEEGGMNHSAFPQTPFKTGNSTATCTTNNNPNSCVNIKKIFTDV
# METHOD_DESCRIPTION: cell-based
# Assay type: cell-based
# REPORTED_CONDITIONS: read-out: Kv1.3 (IWQ) IC50 (nM, Avg)
ENDPOINT: IC50 (nM)
Write it as a number; the unit nM goes unstated.

**Q:** Look up IC50: 20kDaPEG-[-Nal16]ShK (RSCIDTIPKSRCTAFXCKHSMKYRLSFCRKTCGTC; 20 kDa PEG; 1-Nal16; ShK PEGylated toxin peptide analog; PEGylated; 3-(1-naphthyl)alanine)
**A:** 39.1
